# Target system: FRAP1 (mTOR) (Homo sapiens, UniProt P42345)
pIC50: −log10 of the molar value.
Measurement name: pIC50

query: # pIC50 lookup, item CCCC(=O)OCCc1ccc(O)c(O)c1 [CHEMBL1950046, 3,4-Dihydroxyphenethyl butyrate]
result: ~4.41

---

# Target system: DNMT3A (Homo sapiens)
# Construct: recombinant, Reaction Biology Corp. HotSpot assay
# Sequence (Q9Y6K1 whole entry, looked up): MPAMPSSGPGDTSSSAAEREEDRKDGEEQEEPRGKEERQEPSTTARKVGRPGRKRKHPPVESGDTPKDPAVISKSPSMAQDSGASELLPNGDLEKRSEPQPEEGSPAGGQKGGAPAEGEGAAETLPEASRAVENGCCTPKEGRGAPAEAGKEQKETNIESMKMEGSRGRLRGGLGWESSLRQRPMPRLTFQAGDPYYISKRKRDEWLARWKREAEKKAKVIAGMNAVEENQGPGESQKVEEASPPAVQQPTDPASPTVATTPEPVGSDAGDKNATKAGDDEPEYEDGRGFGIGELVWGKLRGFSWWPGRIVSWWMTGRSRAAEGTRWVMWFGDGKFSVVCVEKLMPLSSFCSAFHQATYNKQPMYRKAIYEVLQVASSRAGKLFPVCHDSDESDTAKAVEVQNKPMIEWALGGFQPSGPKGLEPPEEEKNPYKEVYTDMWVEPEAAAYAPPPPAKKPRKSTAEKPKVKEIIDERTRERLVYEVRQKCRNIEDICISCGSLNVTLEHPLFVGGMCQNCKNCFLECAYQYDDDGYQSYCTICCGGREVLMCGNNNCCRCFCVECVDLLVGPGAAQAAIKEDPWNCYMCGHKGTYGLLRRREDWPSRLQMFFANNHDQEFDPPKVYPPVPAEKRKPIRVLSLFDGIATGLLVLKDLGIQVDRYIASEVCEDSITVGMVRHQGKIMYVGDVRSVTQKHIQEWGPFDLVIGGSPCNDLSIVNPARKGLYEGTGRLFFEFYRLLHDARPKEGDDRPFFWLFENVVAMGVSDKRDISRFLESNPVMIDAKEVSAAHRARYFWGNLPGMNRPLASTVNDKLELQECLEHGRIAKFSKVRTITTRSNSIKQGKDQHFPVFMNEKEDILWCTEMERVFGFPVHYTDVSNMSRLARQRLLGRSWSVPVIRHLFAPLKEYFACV
# Method notes: HotSpot radioisotope filter-binding methyltransferase assay, 10-dose
pIC50: −log10 of the molar value.
Measurement name: pIC50

query: # pIC50 lookup, item CCCC(=O)OCCc1ccc(O)c(O)c1 [CHEMBL1950046, 3,4-Dihydroxyphenethyl butyrate]
result: < 3.82
